Just for reference, ChEMBL document CHEMBL3098105 is where these values come from.

Test system: HT-29
Experiment: Antiproliferative activity against human HT-29 cells after 3 days by SRB assay
Format: functional, cell-based
Settings: HT-29, 72 h
// reported IC50 for each item listed

Worked examples, 4 compounds total:
{"columns": ["MOL SMILES", "TESTED ON", "IC50"],
 "data": [
  ["O=C1Nc2ncccc2/C1=C1/Nc2ccccc2C1=O", "HT-29", "> 10 µM"],
  ["O=C1Nc2ncccc2/C1=C1/Nc2ncccc2C1=O", "HT-29", "2 µM"],
  ["O=C1/C(=C2\\Nc3ncccc3C2=O)Nc2ncccc21", "HT-29", "> 100 µM"],
  ["O=C1Nc2ncccc2/C1=C1\\C(=O)Nc2ncccc21", "HT-29", "> 100 µM"]
]}

# ---- query compound ----
Quick one: IC50 for O=C1Nc2ccccc2/C1=C1/Nc2ncccc2C1=O ?
> 10 µM
